experiment-summary: Kinetic/metabolite studies: HPLC analysis of plasma after oral administration
Type: in vivo, Sprague-Dawley rats
assay-context: after oral administration, HPLC

{"columns": ["compound", "Compound in plasma"],
 "data": [
  ["CCOc1cc(NC(=S)NS(=O)(=O)c2ccc(C)cc2)ccn1", "no"],
  ["CCOc1cccc(NC(=S)NS(=O)(=O)c2ccc(C)cc2)n1", "no"],
  ["CCOc1cccc(NC(=O)NS(=O)(=O)c2ccc(C)cc2)n1", "yes"],
  ["COc1ccc(Cl)cc1C(=O)NCCc1ccc(S(=O)(=O)NC(=O)NC2CCCCC2)cc1 [Glibenclamide, reference compound]", "no"]
]}
